Would you kindly list Change of B-scores (%) for each of these compounds?
Target: MRGPRX2-MUT (MRGPRX2 N62S mutation) (Homo sapiens, UniProt Q96LB1, N62S)
Construct: expressed in transfected cells
Sequence (Q96LB1 whole entry N62S): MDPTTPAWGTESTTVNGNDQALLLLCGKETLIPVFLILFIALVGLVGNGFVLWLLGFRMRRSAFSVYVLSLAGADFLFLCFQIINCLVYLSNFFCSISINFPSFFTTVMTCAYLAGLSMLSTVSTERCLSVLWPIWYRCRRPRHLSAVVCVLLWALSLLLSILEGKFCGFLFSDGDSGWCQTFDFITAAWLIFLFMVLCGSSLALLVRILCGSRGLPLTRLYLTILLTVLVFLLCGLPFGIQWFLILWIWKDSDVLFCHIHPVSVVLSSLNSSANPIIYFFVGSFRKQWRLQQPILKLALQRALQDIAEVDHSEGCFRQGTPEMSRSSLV
Assay: Primary HTS, Ca2+ mobilization (fluorescence ratio, B-score) in HEK293-Gα15 cells stably expressing the MRGPRX2 N62S mutation
Format: cell-based
Conditions: MRGPRX2-MUT in comparison to MRGPRX2-WT cells, 10 μM, Supplementary Table 1
Structures can show the parent of a compound that is named as a salt.
# number only, unit % dropped from output

Documented Change of B-scores (%) of CCCCC[C@H](O)/C=C/[C@H]1[C@H](O)CC(=O)[C@@H]1C/C=C\CCCC(=O)O [Dinoprostone (Prostaglandin E2)] : -57.38

Entry under test: CN1[C@@H]2CC[C@H]1C[C@@H](OC(c1ccccc1)c1ccccc1)C2 [Benztropine Methanesulfonate] . Its Change of B-scores (%) was -89.29

The value of Change of B-scores (%) measured for the compound CN(C)CCC(c1ccc(Br)cc1)c1ccccn1 (stereo not drawn) [Brompheniramine Maleate] turned out to be -97.07

// field: Change of B-scores (%); key: CCCCC(CC)CNC(=N)NC(=N)NCCCCCCNC(=N)NC(=N)NCC(CC)CCCC (stereo not drawn) [Alexidine Hydrochloride] ; value = -94.54

The compound identified as CC(Cc1ccc(O)cc1)NCC(O)c1cc(O)cc(O)c1 (stereo not drawn) [Fenoterol Hydrobromide] registered its Change of B-scores (%) at -100.16

The reported value for CO[C@H]1/C=C/O[C@@]2(C)Oc3c(C)c(O)c4c(O)c(c(/C=N/N5CCN(C)CC5)c(O)c4c3C2=O)NC(=O)/C(C)=C\C=C\[C@H](C)[C@H](O)[C@@H](C)[C@@H](O)[C@@H](C)[C@H](OC(C)=O)[C@@H]1C in terms of Change of B-scores (%) is -98.45

// sample CN1CCc2c(c3ccccc3n2Cc2ccccc2)C1.CN1CCc2c(c3ccccc3n2Cc2ccccc2)C1.O=S(=O)(O)c1cccc2c(S(=O)(=O)O)cccc12 [Mebhydrolin Naphthalenesulfonate] , its Change of B-scores (%) was -92.39

For this compound ( CNCCCC1c2ccccc2C=Cc2ccccc21 [Protriptyline Hydrochloride] ), measured Change of B-scores (%) is -85.30

Quick note, Change of B-scores (%) for CCOC(=O)[C@H](CCc1ccccc1)N[C@@H](C)C(=O)N1[C@H](C(=O)O)C[C@@H]2CCC[C@@H]21 landed at 42.73

Entry CN1CCC(=C2c3ccccc3CCc3sccc32)CC1.O=C(O)CC(O)C(=O)O [Pizotyline Malate] — recorded Change of B-scores (%) = -96.75

Recorded Change of B-scores (%) (compound CC(Cc1ccc(O)cc1)NCC(O)c1cc(O)cc(O)c1 (stereo not drawn) [Fenoterol] ): -41.33

Memo: C[C@@H](Oc1cc(-c2cnn(C3CCNCC3)c2)cnc1N)c1c(Cl)ccc(F)c1Cl , reported Change of B-scores (%): -101.99

Reported Change of B-scores (%) for CN(C)CCC(c1ccc(Br)cc1)c1ccccn1 (stereo not drawn) [Brompheniramine] was -96.48

According to the records, this compound CCCCC[C@H](O)/C=C/[C@H]1[C@H](O)CC(=O)[C@@H]1CCCCCCC(=O)O displays Change of B-scores (%) of -73.65

CC(=O)OCC[N+](C)(C)C [Acetylcholine] has a reported Change of B-scores (%) of 245.01

Per the record, CC(C)NCC(O)c1ccc(O)c(O)c1 (stereo not drawn) [Isoproterenol Hydrochloride] has Change of B-scores (%) of -100.26

The reported value for COc1cc(C(=O)NCc2ccc(OCCN(C)C)cc2)cc(OC)c1OC [Trimethobenzamide Hydrochloride] in terms of Change of B-scores (%) is -99.27

Entry C[N+](C)(C)CCOC(N)=O , Change of B-scores (%) reported as 49.41

Change of B-scores (%) measured on CN1[C@@H]2CC[C@H]1C[C@@H](OC(=O)C(CO)c1ccccc1)C2 (stereo partly drawn) [Atropine Sulfate Monohydrate] = -96.27

Briefly, Change of B-scores (%) measured for CC(=O)O.CC(=O)O.CC[C@H](C)C[C@H](C)CCCCCCCCC(=O)N[C@H]1C[C@@H](O)[C@@H](NCCN)NC(=O)[C@@H]2[C@@H](O)CCN2C(=O)[C@H]([C@H](O)CCN)NC(=O)[C@H]([C@H](O)[C@@H](O)c2ccc(O)cc2)NC(=O)[C@@H]2C[C@@H](O)CN2C(=O)[C@H]([C@@H](C)O)NC1=O [Caspofungin acetate] : -43.63

Entry CN(C)CC[C@@H](c1ccc(Cl)cc1)c1ccccn1 [Dexchlorpheniramine Maleate] , Change of B-scores (%) reported as -97.76

For reference, reported Change of B-scores (%) for CC(=O)c1ccc2c(c1)N(CCCN(C)C)c1ccccc1S2 [Acepromazine Maleate] stands at -34.19

Recorded Change of B-scores (%) (compound NC[C@H](O)c1ccc(O)c(O)c1 [Norepinephrine] ): -73.85

The measured Change of B-scores (%) associated with CCCCC[C@H](O)/C=C/[C@@H]1[C@H]2C/C(=C/CCCC(=O)O)O[C@H]2C[C@H]1O reads -60.51

Short answer for CNCCC(Oc1ccc(C(F)(F)F)cc1)c1ccccc1 (stereo not drawn) : Change of B-scores (%) was -80.32

Briefly, Change of B-scores (%) measured for Cc1ccc(NC(=O)c2ccc(CN3CCN(C)CC3)cc2)cc1Nc1nc(-c2cccnc2)cs1 : -86.20

Data point: CN1CCN(c2c(F)cc3c(=O)c(C(=O)O)cn4c3c2SCC4)CC1.Cl [Rufloxacin Hydrochloride] ; Change of B-scores (%) = -100.76

The compound identified as N=C(N)c1ccc(OCCCCCOc2ccc(C(=N)N)cc2)cc1 [Pentamidine] registered its Change of B-scores (%) at -63.92

Entry CC(CN(C)C)CN1c2ccccc2CCc2ccccc21 (stereo not drawn) [Trimipramine Maleate] ; Change of B-scores (%) = -84.91

Entry Cl.NC1CCN(c2c(F)cc3c(=O)c(C(=O)O)cn(C4CC4)c3c2Cl)C1 (stereo not drawn) [Clinafoxacin Hydrochloride] , Change of B-scores (%) reported as -96.48

Change of B-scores (%) reading for Cc1ccc(/C(=C\CN2CCCC2)c2ccccn2)cc1.Cl [Triprolidine Hydrochloride] : -96.71

Change of B-scores (%) reading for COc1ccc(CN(CCN(C)C)c2ncccn2)cc1 [Thonzylamine Hydrochloride] : -94.91

Quick note, Change of B-scores (%) for CC(C)NCC(O)c1ccc(O)c(O)c1 (stereo not drawn) [Isoproterenol] landed at -64.69

Ref: paper PMC9635925
